The reported numbers originate from PubChem BioAssay (EPA / NIEHS).

TEST DESCRIPTION: BSK_CASM3C_SRB: Viability Assessment in the BioMAP Diversity Plus: CASM3C Assay (AID 2283050);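 also: total protein by SRB staining as cytotoxicity measure in parallel cultures; cells exposed to compound for 24 h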
EXPERIMENTAL CONDITIONS: primary human coronary artery smooth muscle cells
Active and inactive are the calls of the source. The calls were made as follows: active = hit-call score of the fitted dose curve at least 0.9, where 1 is the maximum; inactive = score below 0.9.
// one of active, inactive, no free text

Worked examples, 10 compounds total:
• COc1cc(C(C)C)c2c(c1)S(=O)(=O)N(COc1cc(=O)n3cccc(OCCN4CCCCC4)c3n1)C2=O = inactive
• NC(=O)NN=Cc1ccc([N+](=O)[O-])o1 = inactive
• CC(C)CC(C)O (stereo unspecified) = inactive
• C=CCc1cc(S(=O)(=O)c2ccc(O)c(CC=C)c2)ccc1O = active
• O=C(O)c1cccc(C(=O)O)c1 = inactive
• Cc1nc(-c2ccccn2)ncc1C(=O)Nn1cc(C)c2cc(F)ccc21 = inactive
• OC(O)(C(F)C(O)(O)C(F)(F)F)C(F)(F)F = inactive
• OCc1c[nH]c2ccccc12 = inactive
• CCCCCCOC(=O)CC(CC(=O)OCCCCCC)(OC(=O)CCC)C(=O)OCCCCCC = inactive
• Cc1nccn1-c1ccc(Sc2cccc(C3(C(N)=O)CCOCC3)c2)cc1 = inactive

Give the logged outcome of this assay for the following compound: "CC1(C)C(=O)N(Cl)C(=O)N1Cl"
inactive

Give the logged outcome of this assay for the following compound: "CC[C@H](C)C(=O)O[C@H]1C[C@H](O)C=C2C=C[C@H](C)[C@H](CC[C@@H](O)C[C@@H](O)CC(=O)O)[C@H]21"
inactive

Give the logged outcome of this assay for the following compound: "COS(C)(=O)=O"
inactive

Give the logged outcome of this assay for the following compound: "O=C(O)c1ccc2c(c1)nc(C(=O)NC1CCN(C3CC3)CC1)n2Cc1cc(-c2ccc(Cl)s2)on1"
inactive

====

Read-out: growth arrest and DNA damage 45 (GADD45G), GADD45G (gene 10912)
TEST DESCRIPTION: LTEA_HepaRG_GADD45G: Life Technologies and Expression Analysis (LTEA) Assay for growth arrest and DNA damage 45 (GADD45G) using HepaRG (AID 2283499)
EXPERIMENTAL CONDITIONS: mRNA level, 48 h; actives raise or lower the signal
Activity calls are given as the source filed them. How the source made its calls: active means hit-call score of the fitted dose curve at least 0.9, where 1 is the maximum; inactive means score below 0.9.
// one of yes = active, no = inactive, no free text

* O=C(O)[C@H](O)[C@@H](O)C(=O)O | no
* O=C(O)c1cccc(C(=O)O)c1 | no
* CCCCOC(=O)c1ccccc1 | no
* OC(Cn1cncn1)(Cn1cncn1)c1ccc(F)cc1F | no
* C=CN1CCCC1=O | no
* CC(C)CCCCCCOC(=O)C1CCCCC1C(=O)OCCCCCCC(C)C (stereo unspecified) | no

Give the logged outcome of this assay for the following molecule: "OC[C@H]1O[C@@](CO)(O[C@H]2O[C@H](CO)[C@@H](O)[C@H](O)[C@H]2O)[C@@H](O)[C@@H]1O"
no

Give the logged outcome of this assay for the following molecule: "C[C@]12C=CC(=O)C=C1CC[C@H]1[C@@H]3C[C@@H](O)[C@](O)(C(=O)CO)[C@@]3(C)C[C@H](O)[C@@]12F"
no

Give the logged outcome of this assay for the following molecule: "NC(=O)N1c2ccccc2C=Cc2ccccc21"
no

Give the logged outcome of this assay for the following molecule: CCCCC(CC)C(=O)OCCOCCOCCOC(=O)C(CC)CCCC (stereo unspecified)
no

Give the logged outcome of this assay for the following molecule: "COc1cc(C(C)C)c2c(c1)S(=O)(=O)N(COc1cc(=O)n3cccc(OCCN4CCCCC4)c3n1)C2=O"
yes

====

TEST DESCRIPTION: APR_HepG2_MitoMass_72hr: Apredica 72-hour HepG2 Assay for Mitochondrial Mass (AID 2282924);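 also: MitoTracker Red CMXRos stain intensity per cell imaged as mitochondrial mass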
EXPERIMENTAL CONDITIONS: high-content imaging, actives raise or lower the signal
Calls of active or inactive are those of the source. Rule for the calls: active = hit-call score of the fitted dose curve at least 0.9, where 1 is the maximum; inactive = score below 0.9.
// one of active, inactive, no free text

Worked examples, 3 compounds total:
* CCOc1ccc2[nH]cc(C(=O)NCc3ccccc3)c(=O)c2n1 | inactive
* Cc1ccc(S(=O)(=O)NC(=O)NN2CCCCCC2)cc1 | inactive
* O=S1(=O)CCCO1 | inactive

Give the logged outcome of this assay for the following compound: "COCc1nnc(-c2ccc[n+]([O-])c2)n1-c1c(Cl)c(Cl)cc2[nH]c(=O)c(=O)[nH]c12"
inactive

Give the logged outcome of this assay for the following compound: "COc1cc(C(C)C)c2c(c1)S(=O)(=O)N(COc1cc(=O)n3cccc(OCCN4CCCCC4)c3n1)C2=O"
inactive

Give the logged outcome of this assay for the following compound: "c1ccc2ncccc2c1"
inactive

Give the logged outcome of this assay for the following compound: "CCCCOC(=O)c1ccccc1"
inactive

Give the logged outcome of this assay for the following compound: "O=S(=O)(O)c1ccc(N=Nc2c(O)ccc3cc(S(=O)(=O)O)ccc23)cc1"
inactive

Give the logged outcome of this assay for the following compound: "CCCCN1C(=O)[C@@H]([C@H](O)C2CCCCC2)NC(=O)C12CCN(Cc1ccc(Oc3ccc(C(=O)O)cc3)cc1)CC2"
inactive

Give the logged outcome of this assay for the following compound: "COc1cc2c(c(OC)c1OC)-c1ccc(OC)c(=O)cc1[C@@H](NC(C)=O)CC2"
inactive

====

TEST DESCRIPTION: ATG_GLI_CIS: Attagene CIS-FACTORIAL HepG2 Assay for human Zinc Finger Protein GLI1 (AID 2282945)
EXPERIMENTAL CONDITIONS: HepG2, Attagene cis-factorial reporter mRNA, GLI element; actives raise or lower the signal
Activity calls are given as the source filed them. How the source made its calls: active means hit-call score of the fitted dose curve at least 0.9, where 1 is the maximum; inactive means score below 0.9.
// one of t for active, f for inactive, no free text

Worked examples, 4 compounds total:
• OCc1ccccc1 = f
• CCCCCCCCCCCCCCO = f
• O=S1(=O)CCCO1 = f
• NC(=O)N(O)[C@@H]1COc2cc(OCc3ccccc3)ccc21 = f

Give the logged outcome of this assay for the following compound: "CCN(CC)C(=S)SSC(=S)N(CC)CC"
t

Give the logged outcome of this assay for the following compound: "COCc1nnc(-c2ccc[n+]([O-])c2)n1-c1c(Cl)c(Cl)cc2[nH]c(=O)c(=O)[nH]c12"
f

Give the logged outcome of this assay for the following compound: "CCCOc1ccc(S(=O)(=O)N2CCN(CC)CC2)cc1-c1nc2c(CC)n(Cc3ccccn3)nc2c(=O)[nH]1"
f

Give the logged outcome of this assay for the following compound: "CC(C)C(=O)Nc1ccc([N+](=O)[O-])c(C(F)(F)F)c1"
f

Give the logged outcome of this assay for the following compound: "CCCCCCCCCCCCCCCCOS(=O)(=O)O"
f

Give the logged outcome of this assay for the following compound: "O=C(O)c1cccc(C(=O)O)c1"
f

Give the logged outcome of this assay for the following compound: "NCC(F)(F)C(F)(F)C(F)(F)C(F)(F)F"
f

Give the logged outcome of this assay for the following compound: "CCCCN1C(=O)[C@@H]([C@H](O)C2CCCCC2)NC(=O)C12CCN(Cc1ccc(Oc3ccc(C(=O)O)cc3)cc1)CC2"
f

====

Read-out: DNA damage-inducible transcript 3 (DDIT3), DDIT3 (gene 1649)
TEST DESCRIPTION: LTEA_HepaRG_DDIT3: Life Technologies and Expression Analysis (LTEA) Assay for DNA damage-inducible transcript 3 (DDIT3) using HepaRG (AID 2283488)
EXPERIMENTAL CONDITIONS: mRNA level, 48 h; actives raise or lower the signal
The source made the active and inactive calls. How the source made its calls: active means hit-call score of the fitted dose curve at least 0.9, where 1 is the maximum; inactive means score below 0.9.
// one of active, inactive, no free text

Worked examples, 8 molecules total:
- CCCC(CCC)C(=O)O: inactive
- OC(CCl)CCl: inactive
- O=S1(=O)CCCO1: inactive
- CCCCCCCC1CCC(=O)O1 (centres undefined): inactive
- Cc1nc(-c2ccccn2)ncc1C(=O)Nn1cc(C)c2cc(F)ccc21: inactive
- Cc1ccc(S(=O)(=O)NC(=O)NN2CCCCCC2)cc1: inactive
- O=C(NO)C1(NS(=O)(=O)c2ccc(Oc3ccc(F)cc3)cc2)CCOCC1: active
- CC(C)C(=O)Nc1ccc([N+](=O)[O-])c(C(F)(F)F)c1: active

Give the logged outcome of this assay for the following molecule: "CC(C)c1nnc2ccc(-c3ocnc3-c3cc(F)ccc3F)cn12"
active

Give the logged outcome of this assay for the following molecule: "OCCNCCO"
inactive

====

TEST DESCRIPTION: ATG_CMV_CIS: Attagene CIS-FACTORIAL HepG2 Assay for human CMV (Internal Marker) (AID 2282928);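 also: endpoint acts as a background internal control marker rather than a target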
EXPERIMENTAL CONDITIONS: HepG2 CMV promoter reporter, transcription factor profiling; actives raise or lower the signal
The source made the active and inactive calls. The calls were made as follows: active = hit-call score of the fitted dose curve at least 0.9, where 1 is the maximum; inactive = score below 0.9.
// one of T = active, F = inactive, no free text

Worked examples, 3 compounds total:
* C[C@]12C=CC(=O)C=C1CC[C@H]1[C@@H]3C[C@@H](O)[C@](O)(C(=O)CO)[C@@]3(C)C[C@H](O)[C@@]12F | F
* Cc1ccc(S(=O)(=O)NC(=O)NN2CCCCCC2)cc1 | F
* CCc1ccc(O)c(C(C)(C)C)c1 | T

Give the logged outcome of this assay for the following compound: "OC(Cn1cncn1)(Cn1cncn1)c1ccc(F)cc1F"
F

Give the logged outcome of this assay for the following compound: "Cn1c(=O)c2[nH]cnc2n(C)c1=O"
F

Give the logged outcome of this assay for the following compound: FC(F)C(F)(F)COCC1CO1 (centres undefined)
F

Give the logged outcome of this assay for the following compound: "CCCCCCOC(=O)CC(CC(=O)OCCCCCC)(OC(=O)CCC)C(=O)OCCCCCC"
F

Give the logged outcome of this assay for the following compound: "NNC(=O)c1ccncc1"
F

Give the logged outcome of this assay for the following compound: "C=CN1CCCC1=O"
F

Give the logged outcome of this assay for the following compound: "c1ccc2c(c1)-c1cccc3c1c-2cc1ccccc13"
F

Give the logged outcome of this assay for the following compound: CCCCCCCC1CCC(=O)O1 (centres undefined)
F

Give the logged outcome of this assay for the following compound: "C[C@@H](Oc1ccc(CNC(=O)c2cccnc2Oc2ccc3c(c2)OCO3)c(F)c1)C(=O)O"
F

Give the logged outcome of this assay for the following compound: "CC(C)C(=O)Nc1ccc([N+](=O)[O-])c(C(F)(F)F)c1"
F

Give the logged outcome of this assay for the following compound: "FC(F)(F)COC(OCC(F)(F)F)OCC(F)(F)F"
F

Give the logged outcome of this assay for the following compound: "CC[C@H](C)C(=O)O[C@H]1C[C@H](O)C=C2C=C[C@H](C)[C@H](CC[C@@H](O)C[C@@H](O)CC(=O)O)[C@H]21"
F

Give the logged outcome of this assay for the following compound: "O=c1[nH]cnc2c1ncn2[C@H]1CC[C@@H](CO)O1"
F

Give the logged outcome of this assay for the following compound: "C=CCc1cc(S(=O)(=O)c2ccc(O)c(CC=C)c2)ccc1O"
T

Give the logged outcome of this assay for the following compound: "CCc1cccc(CC)c1N"
F

Give the logged outcome of this assay for the following compound: "O=C(O)[C@H](O)[C@@H](O)C(=O)O"
F

Give the logged outcome of this assay for the following compound: "C[Si](C)(C)C(F)(F)C(F)(F)C(F)(F)F"
F

Give the logged outcome of this assay for the following compound: "CCCC(CCC)C(=O)O"
F

Give the logged outcome of this assay for the following compound: "COc1cc(C(C)C)c2c(c1)S(=O)(=O)N(COc1cc(=O)n3cccc(OCCN4CCCCC4)c3n1)C2=O"
T

Give the logged outcome of this assay for the following compound: "CNC(C)=O"
F

Give the logged outcome of this assay for the following compound: "O=C(O)c1ccc2c(c1)nc(C(=O)NC1CCN(C3CC3)CC1)n2Cc1cc(-c2ccc(Cl)s2)on1"
F

Give the logged outcome of this assay for the following compound: "O=S(=O)(O)CCC(F)(F)C(F)(F)C(F)(F)C(F)(F)C(F)(F)C(F)(F)F"
F

Give the logged outcome of this assay for the following compound: "FC(F)=C(F)C(F)(F)C(F)(F)C(F)(F)C(F)(F)C(F)(F)C(F)(F)F"
F
